# credit: patent US20150315218A1

- assay-summary: Single-dose toxicokinetic and tolerability study of prodrugs in dogs
- Type: in vivo, dog
- test-context: male, dog, plasma, po, 25 mg/kg, dog 2101M, day 1, Icb 25 mg/kg (IVc equiv. 20) QD dry-filled capsules
measured-endpoint: Cmax
Report as: number unit

For the compound shown here, COc1cnc(-n2cnc(C)n2)c2[nH]cc(C(=O)C(=O)N3CCN(C(=O)c4ccccc4)CC3)c12 , give the reported Cmax.
65.1 µM

----------
- assay-summary: Single-dose toxicokinetic and tolerability study of prodrugs in dogs
- Format: in vivo, dog
- test-context: female, dog, plasma, po, 90 mg/kg, IVa, Iab 90 mg/kg Solution; Dogs #3201, #3202; read-out: T½ (converted)
measured-endpoint: half-life
Report as: number unit

For the compound shown here, COc1ncc(OC)c2c(C(=O)C(=O)N3CCN(C(=O)c4ccccc4)CC3)c[nH]c12 , give the reported half-life.
4.4 h

----------
- assay-summary: IV and oral rat PK (MAP) studies A, B, C of phosphate prodrugs and parent studies A1, B1, C1
- Assay type: in vivo, Sprague-Dawley rats
- test-context: male, Sprague-Dawley, rat, plasma, po, 5 mg/kg, rats, after PO prodrug dosing equivalent to 5 mpk of parent; analyte = label
measured-endpoint: Cmax (µM)
Please reply with the bare figure in µM and do not write the unit itself.

COc1cnc(-n2cnc(C)n2)c2[nH]cc(C(=O)C(=O)N3CCN(C(=O)c4ccccc4)CC3)c12 [IVc] | 10.2

For the compound shown here, COc1ncc(OC)c2c(C(=O)C(=O)N3CCN(C(=O)c4ccccc4)CC3)c[nH]c12 [IVa] , give the reported Cmax.
1.4

One more compound: O=C(C(=O)N1CCN(C(=O)c2ccccc2)CC1)c1c[nH]c2c(-n3ccnn3)ncc(F)c12 [IVb]
3.9

----------
- assay-summary: IV and PO pharmacokinetic studies of prodrug salts (Iab, Ibb, Icb) in the dog, with historical parent data
- Format: in vivo, beagle dogs
- test-context: male, beagle, plasma, iv, […], read-out: T1/2 (converted)
- Method: The IV and PO studies of Iab were conducted in a crossover fashion in three male beagle dogs (11±1.1 kg, Marshall Farms USA Inc., North Rose, N.Y.). There was a two-week washout period between the IV and PO studies. In the IV study, Iab was infused via the cephalic vein at 1.2 mg/kg (free acid, or 0.95 mg/kg of IVa equivalent) over 5 min at a constant rate of 0.1 mL/kg/min. The concentration of the dosing solution was 2.4 mg/mL, and the dosing volume was 0.5 mL/kg. […]
measured-endpoint: half-life (h)
Please reply with the bare figure in h and do not write the unit itself.

For the molecule shown here, O=C(C(=O)N1CCN(C(=O)c2ccccc2)CC1)c1c[nH]c2c(-n3ccnn3)ncc(F)c12 [IVb] , give the reported half-life.
2

----------
- assay-summary: IV and PO pharmacokinetic studies of prodrug salts (Iab, Ibb, Icb) in the rat, with historical parent data
- Format: in vivo, Sprague-Dawley rats
- test-context: Sprague-Dawley, plasma, historical parent, IV 1 mg/kg, read-out: Vdss (L/kg), IV
measured-endpoint: Vd (L/kg)
Please reply with the bare figure in L/kg and do not write the unit itself.

For the compound shown here, COc1ncc(OC)c2c(C(=O)C(=O)N3CCN(C(=O)c4ccccc4)CC3)c[nH]c12 , give the reported Vd.
1.5

----------
- assay-summary: Single-dose toxicokinetic and tolerability study of prodrugs in dogs
- Type: in vivo, dog
- test-context: female, dog, plasma, po, 24 mg/kg, IVa, Iab 24 mg/kg Dry-filled capsule; Dogs #4201, #4202; read-out: T½ (converted)
measured-endpoint: half-life (h)
Please reply with the bare figure in h and do not write the unit itself.

For the compound shown here, COc1ncc(OC)c2c(C(=O)C(=O)N3CCN(C(=O)c4ccccc4)CC3)c[nH]c12 [IVa] , give the reported half-life.
4.2

----------
- assay-summary: MAP studies G and H: PO dosing of diester IIa and monoester II′a in rats
- Format: in vivo, rat
- test-context: male, Sprague-Dawley, rat, plasma, po, 5 mg/kg, IVa following PO dosing of diester IIa
measured-endpoint: Cmax (nM)
Please reply with the bare figure in nM and do not write the unit itself.

For the compound shown here, COc1ncc(OC)c2c(C(=O)C(=O)N3CCN(C(=O)c4ccccc4)CC3)c[nH]c12 [IVa] , give the reported Cmax.
1120

----------
- assay-summary: IV and PO pharmacokinetic studies of prodrug salts (Iab, Ibb, Icb) in the dog, with historical parent data
- Format: in vivo, beagle dogs
- test-context: plasma, po, 5 mg/kg, read-out: Tmax
measured-endpoint: Tmax (min)
Please reply with the bare figure in min and do not write the unit itself.

COc1cnc(-n2cnc(C)n2)c2[nH]cc(C(=O)C(=O)N3CCN(C(=O)c4ccccc4)CC3)c12 | 78

Let us examine a further case.
For the compound shown here, O=C(C(=O)N1CCN(C(=O)c2ccccc2)CC1)c1c[nH]c2c(-n3ccnn3)ncc(F)c12 , give the reported Tmax.
30

----------
- assay-summary: Single-dose oral toxicokinetic study of prodrugs in rats
- Assay type: in vivo, rat
- test-context: male, Sprague Dawley, rat, plasma, oral, 64 mg/kg (free acid); read-out: C24h
measured-endpoint: concentration at 24 h (nM)
Please reply with the bare figure in nM and do not write the unit itself.

For the compound shown here, O=C(C(=O)N1CCN(C(=O)c2ccccc2)CC1)c1c[nH]c2c(-n3ccnn3)ncc(F)c12 [IVb] , give the reported concentration at 24 h.
290

----------
- assay-summary: physchem
- test-context: aqueous solution, aqueous buffer, thermodynamic from solid
measured-endpoint: solubility

For the compound shown here, COc1cnc(OC)c2c1c(C(=O)C(=O)N1CCN(C(=O)c3ccccc3)CC1)cn2COP(=O)(O)O [Iab] , give the reported solubility.
> 12 mg/mL

----------
- assay-summary: 2-week oral dose rat toxicology / TK study F
- Assay type: in vivo
- test-context: male, Sprague-Dawley, rat, plasma, oral; males, dosages 200 mg/kg/day; read-out: AUC0-24 h on Day 14
measured-endpoint: AUC(0-t) (µg·h/mL)
Please reply with the bare figure in µg·h/mL and do not write the unit itself.

For the compound shown here, COc1cnc(-n2cnc(C)n2)c2[nH]cc(C(=O)C(=O)N3CCC(=C(C#N)c4ccccn4)CC3)c12 , give the reported AUC(0-t).
527

----------
- assay-summary: 2-week oral dose rat toxicology / TK study F
- Assay type: in vivo
- test-context: rat, plasma; rats PO 75 mg/kg (susp), historical; read-out: Mean AUC0-24 hr
measured-endpoint: AUC(0-t)

For the molecule shown here, COc1cnc(-n2cnc(C)n2)c2[nH]cc(C(=O)C(=O)N3CCN(C(=O)c4ccccc4)CC3)c12 , give the reported AUC(0-t).
792 µM·h

----------
Catalogue of half-life readings, one per entry.
- assay-summary: Single-dose oral toxicokinetic study of prodrugs in rats
- Assay type: in vivo, rat
- test-context: CD, rat, plasma; male rats, Iab 267 mg/kg PO; analyte = label; read-out: T½ (converted)
Please reply with the bare figure in min and do not write the unit itself.

COc1cnc(OC)c2c1c(C(=O)C(=O)N1CCN(C(=O)c3ccccc3)CC1)cn2COP(=O)(O)O [Iab] | 2.7

Let us examine a further case.
For the compound shown here, COc1ncc(OC)c2c(C(=O)C(=O)N3CCN(C(=O)c4ccccc4)CC3)c[nH]c12 [IVa] , give the reported half-life.
204

----------
- assay-summary: IV and PO pharmacokinetic studies of prodrug salts (Iab, Ibb, Icb) in the monkey, with historical parent data
- Type: in vivo, cynomolgus monkeys
- test-context: male, cynomolgus monkey, plasma, oral, […]; read-out: Bioavailability
measured-endpoint: bioavailability (%)
Please reply with the bare figure in % and do not write the unit itself.

For the molecule shown here, O=C(C(=O)N1CCN(C(=O)c2ccccc2)CC1)c1c[nH]c2c(-n3ccnn3)ncc(F)c12 , give the reported bioavailability.
187

----------
- assay-summary: IV and oral rat PK (MAP) studies A, B, C of phosphate prodrugs and parent studies A1, B1, C1
- Format: in vivo, Sprague-Dawley rats
- test-context: male, Sprague-Dawley, rat, plasma, oral, 5 mg/kg, rats, after PO prodrug dosing equivalent to 5 mpk of parent; analyte = label; read-out: Cp @ 24 hr p.o.
measured-endpoint: concentration at 24 h (nM)
Please reply with the bare figure in nM and do not write the unit itself.

O=C(C(=O)N1CCN(C(=O)c2ccccc2)CC1)c1c[nH]c2c(-n3ccnn3)ncc(F)c12 | 7.5
COc1cnc(-n2cnc(C)n2)c2[nH]cc(C(=O)C(=O)N3CCN(C(=O)c4ccccc4)CC3)c12 | 84.3

Let us examine a further case.
For the molecule shown here, COc1ncc(OC)c2c(C(=O)C(=O)N3CCN(C(=O)c4ccccc4)CC3)c[nH]c12 , give the reported concentration at 24 h.
35.2

----------
- assay-summary: Single-dose toxicokinetic and tolerability study of prodrugs in dogs
- Type: in vivo, dog
- test-context: female, dog, plasma, po, 90 mg/kg, Table 14: 90 mg/kg; Dogs #1201, #1202; read-out: T½ (converted)
measured-endpoint: half-life

For the molecule shown here, COc1ncc(OC)c2c(C(=O)C(=O)N3CCN(C(=O)c4ccccc4)CC3)c[nH]c12 , give the reported half-life.
3.6 h
